Data provenance: PubChem BioAssay (NCI)

# Test system: HCT-15 colon
# Assay text: NCI-60 one-dose screen, 48 h
# Condition info: 10 µM unless noted
About 83,000 compounds went through this panel and 20% of them were active in at least one assay; those are over-represented in the sample as a whole. Calls of active or inactive are those of the source. The calls were made as follows: active = growth percent below 10; inactive = the rest.
Hi! Could you answer with just one of these? True = active, False = inactive

Use these answered entries as a reference point.
CCc1nc2cc(/C=C/C(=O)NO)ccc2c(=O)n1CCc1ccc(OC)cc1 | False
C/C(=C(/c1ccc(Cl)cc1)c1ccc(OCCN2CCCCC2)cc1)c1ccccc1 | False
CC(=O)C1=C(C)NC(SCc2nnc(-c3ccc(C)cc3)o2)=NC1c1ccc(F)cc1 (stereo not given) | False
CCOC(=O)C1=C(C)NC(=O)NC1c1cc(=O)oc2ccc(C)cc12 (stereo not given) | False
O=C(Nc1ccc(-c2ccnc(Nc3ccc(N4CCOCC4)cc3)n2)cc1)[C@@H]1CCCN1 | False
COC(=O)C1=C(C(=O)OC)C23C=C(C)C1C2=C(C)C1(CC1)[C@@](C)(O)C3=O (stereo not given in full) | True
Nc1c(C(=O)c2ccccc2)sc2nc(-c3cccs3)ccc12 | False
CC(C)(C)C(=O)OCOP(=O)(OCOC(=O)C(C)(C)C)C1CCCN(OC(=O)c2ccccc2)C1=O (stereo not given) | False

Input: For "C[C@@H](Oc1cc(-c2cnn(C3CCNCC3)c2)cnc1N)c1c(Cl)ccc(F)c1Cl" , what call appears in the results of this test?
Output: True

Input: For O=C(O)C1(Cc2cccc(Nc3nccs3)n2)CCC(Oc2cccc(Cl)c2F)CC1 (stereo not given) , what call appears in the results of this test?
Output: False
